# Target Or Test System: muscarinic receptors (3H-QNB sites, M1 and M2, forebrain)
# Condition Details: (b) forebrain
Below, each entry is listed alongside its reported pKi.
API: returns pKi as number; meaning -log10 of concentration in mol/L.

CC1OCC2(CN3CCC2CC3)S1 (centres unmarked)    5.15

Consider the record given below.
Challenge: Report value: pKi, system: muscarinic receptors (3H-QNB sites, M1 and M2, forebrain), compound: `O=C1CCCN1CC#CCN1CCCC1`
Response given: 5.68

----------
# Target Or Test System: muscarinic receptors (3H-QNB sites, frontal cortex)
# Condition Details: (b') frontal cortex
Below, each entry is listed alongside its reported Ki.
The reply should contain only the number, in µM.

Recorded Ki, per entry:
O=C1CCCN1CC#CCN1CCCC1 [compound 1, Oxotremorine]    2.2
CC1OCC2(CN3CCC2CC3)S1 (stereo not shown) [compound 11]    9.7
C[C@H]1O[C@@]2(CN3CCC2CC3)CS1(=O)=O (relative stereo) [compound 14]    34.1

Challenge: Name the recorded Ki of the compound listed here: CC1OCC2(CN3CCC2CC3)S1 (stereo not shown) [compound 8]
Response given: 15.3
